Reported pEC50 values for the following compounds.
Test system: Influenza A virus
Assay: Antiviral activity against Influenza A virus A/Hong Kong/8/68 (H3N2) infected in MDCK cells assessed as reduction in virus-induced cytopathic effect pre-infected with cells for 1 hrs followed by compound addition and measured after 3 days by fluorescein diacetate-based cell viability assay
Type: functional, organism-based
pEC50: −log10 of the molar value.

sample smiles	experimental system	pEC50
CCOC(=O)[C@H](C)Nc1ccn([C@@H]2O[C@H](CO)[C@@H](O)[C@H]2O)c(=O)n1	Influenza A virus	< 4.00
NC(=O)c1nc(F)cnc1O	Influenza A virus	5.07
CCOC(=O)[C@H](Cc1ccccc1)Nc1ccn([C@@H]2O[C@H](CO)[C@@H](O)[C@H]2O)c(=O)n1	Influenza A virus	< 4.00

====

Assay: Cytotoxicity against African green monkey Vero cells assessed as reduction in cell viability incubated for 24 hrs by MTT assay
Type: toxicity, cell-based
Conditions: chlorocebus sabaeus, Vero cells
recorded endpoint: CC50 at 24 h

sample smiles	recorded endpoint	result
O=c1nc(NCCO)ccn1[C@@H]1O[C@H](CO)[C@@H](O)[C@H]1O	CC50 at 24 h	> 100 µM
CCC(CC)COC(=O)[C@H](C)N[P@](=O)(OC[C@H]1O[C@@](C#N)(c2ccc3c(N)ncnn23)[C@H](O)[C@@H]1O)Oc1ccccc1	CC50 at 24 h	> 100 µM
